system: U2OS; assay: Incucyte cell viability with U2OS; type: toxicity, cell-based; conditions: human, 6 h, 10 µM, compound concentration 10 uM, replicate number 1; further: unitless GR value; below 1 slowed growth and below 0 cell loss
MEASURED_METRIC: Growth Rate

Request: Please report Growth Rate with U2OS for item CCC(=O)O[C@@H](OP(=O)(CCCCc1ccccc1)CC(=O)N1C[C@H](C2CCCCC2)C[C@H]1C(=O)[O-])C(C)C.[Na+] (some centres undefined) .
Result: 0.56

Request: Please report Growth Rate with U2OS for item COc1cc([N+](=O)[O-])ccc1NC(=O)c1ccccc1O .
Result: 0.2

Request: Please report Growth Rate with U2OS for item CC(C)(C)NC(=O)c1cncn1C1CCN(c2ccc(-c3nnc(C(F)(F)F)o3)cn2)CC1 .
Result: -0.4

Request: Please report Growth Rate with U2OS for item COc1ccc(-n2nc3c4ccccc4[nH]cc-3c2=O)cc1 .
Result: 0.7

Request: Please report Growth Rate with U2OS for item Cc1ccc(S(=O)(=O)O)cc1.Cn1cc(Nc2nccc(N3CC4CCC(C3)N4C(=O)[C@@H]3CC3(F)F)n2)cn1 .
Result: 0.03

Request: Please report Growth Rate with U2OS for item CCN1C(=O)C(c2cccc(C(=O)O)c2)C(=O)N(c2ccccc2)c2cc(C(F)(F)F)ccc21 (centres undefined) .
Result: 0.49

Request: Please report Growth Rate with U2OS for item CCOC(=O)N1CCC(c2cc(O)n3nc(C)c(-c4ccc(F)cc4)c3n2)CC1 .
Result: 0.54

Request: Please report Growth Rate with U2OS for item CCOC(=O)c1cnn(-c2ccc(NC(=O)C(Cl)=C(Cl)Cl)cc2)c1C(F)(F)F .
Result: -0.33

Request: Please report Growth Rate with U2OS for item COc1cc(-c2cn(C)c(=O)c3cnccc23)c(OC)cc1CN(C)C .
Result: 0.38

---

test system: HEK-293T; assay: Incucyte cell viability with HEK293T; format: toxicity, cell-based; conditions: human, 24 h, 10 µM, compound concentration 10 uM, replicate number 1; further: unitless GR value; below 1 slowed growth and below 0 cell loss
MEASURED_METRIC: Growth Rate
The reply should be a number, written without any unit.

Request: Retrieve Growth Rate measured for CCC(C(=O)Nc1ccc(-c2cc3ccccc3s2)c(C(N)=O)c1)c1nccs1 (stereo not drawn) and print it.
Result: 0.47

Request: Retrieve Growth Rate measured for N#Cc1ccnc(Nc2cc(C3CCN(C4COC4)CC3)cc(N3CCC(F)(F)C3)n2)c1 and print it.
Result: 0.44

Request: Retrieve Growth Rate measured for CN1CCN([C@H]2CC[C@@H](n3cc(-c4ccc(Oc5ccccc5)cc4)c4c(N)ncnc43)CC2)CC1 and print it.
Result: -0.55

Request: Retrieve Growth Rate measured for CC(=O)Nc1ncc(CN2CCC[C@H](Cc3cc(C)nc(C)c3)C2)s1 and print it.
Result: 0.91

Request: Retrieve Growth Rate measured for CC(C)NC(=O)[C@H]1CCC[C@H]1Nc1nc(Nc2ccc(C(=O)N(C)C3CCN(C)CC3)cc2)ncc1Cl and print it.
Result: 0.85

Request: Retrieve Growth Rate measured for Cl.Cl.Nc1nccc(-c2c(-c3ccc(F)cc3)ncn2C2CCCCC2)n1 and print it.
Result: 0.95

Request: Retrieve Growth Rate measured for C=C1/C(=C\C=C2/CCC[C@]3(C)[C@@H]([C@H](C)CCCC(C)(C)O)CC[C@@H]23)C[C@@H](O)C[C@@H]1O and print it.
Result: 0.53

Request: Retrieve Growth Rate measured for C[C@@H]1C[C@H](N)C[C@H](c2ccncc2NC(=O)c2ccc(F)c(-c3c(F)cccc3F)n2)C1 and print it.
Result: 0.36

---

Can you tell me Growth Rate for the items I'm about to list?
system: U2OS; test: Incucyte cell viability with U2OS; format: toxicity, cell-based; conditions: human, 0 h, 10 µM, compound concentration 10 uM, replicate number 2; further: unitless GR value; below 1 slowed growth and below 0 cell loss
The reply should be a number, written without any unit.

Request: Retrieve Growth Rate measured for C=CC[C@@H]1/C=C(\C)C[C@H](C)C[C@H](OC)[C@H]2O[C@@](O)(C(=O)C(=O)N3CCCC[C@H]3C(=O)O[C@H](/C(C)=C/[C@@H]3CC[C@@H](O)[C@H](OC)C3)[C@H](C)[C@@H](O)CC1=O)[C@H](C)C[C@@H]2OC.O and print it.
Result: -1

Request: Retrieve Growth Rate measured for Cc1ccccc1Oc1cc(-n2c(=O)cc(C(F)(F)F)[nH]c2=O)c2ccccc2c1Cl and print it.
Result: 0.42

Request: Retrieve Growth Rate measured for CC(C)(C)C1CCc2c(sc(NC(=O)c3ccco3)c2C(=O)O)C1 (configuration not stated) and print it.
Result: -1

Request: Retrieve Growth Rate measured for COc1cc(N(C)c2ccnc3ccc(C(F)(F)F)cc23)cc(OC)c1OC and print it.
Result: 0.66

Request: Retrieve Growth Rate measured for COc1ncc(-c2cc(-c3ncc(CN4C[C@@H](C)O[C@@H](C)C4)o3)c3cn[nH]c3c2)cc1NS(C)(=O)=O and print it.
Result: -0.39

Request: Retrieve Growth Rate measured for C=CC(=O)N1CCC[C@@H](n2nc(-c3ccc(Oc4ccccc4)cc3)c3c(N)ncnc32)C1 and print it.
Result: 0.8

Request: Retrieve Growth Rate measured for C[C@]12CC[C@@H]3c4ccc(O)cc4CC[C@H]3[C@@H]1C[C@H]1OC(=O)C[C@]12O and print it.
Result: 0.2

---

Can you tell me Growth Rate for the items I'm about to list?
system: Fibroblast; test: Incucyte cell viability with human fibroblast; format: toxicity, cell-based; conditions: 0 h, 10 µM, compound concentration 10 uM, replicate number 1; further: unitless GR value; below 1 slowed growth and below 0 cell loss
The reply should be a number, written without any unit.

Request: Please report Growth Rate with Fibroblast for item Cc1cc(-c2cnc(N)c3c(-c4ccc5scnc5c4)csc23)n(C)n1 .
Result: -1

Request: Please report Growth Rate with Fibroblast for item CNC(=O)c1c(F)cccc1Nc1nc(Nc2cc3c(cc2OC)CCN3C(=O)CN(C)C)nc2[nH]ccc12 .
Result: -0.92

Request: Please report Growth Rate with Fibroblast for item CC(C)NC(=O)[C@H]1CCC[C@H]1Nc1nc(Nc2ccc(C(=O)N(C)C3CCN(C)CC3)cc2)ncc1Cl .
Result: -1

Request: Please report Growth Rate with Fibroblast for item Cc1ccc2c(NS(=O)(=O)c3ccccc3Cl)cccc2c1Oc1ncccc1-c1ccnc(N[C@H]2CCCNC2)n1.Cl .
Result: -1

Request: Please report Growth Rate with Fibroblast for item CCOC(=O)c1c(/C(C#N)=C\N)c2ccc(Cl)c(Cl)c2n1C .
Result: 0.55

Request: Please report Growth Rate with Fibroblast for item Cc1cc(NC(=O)c2cccc(NC(=O)/C=C/CN(C)C)c2)ccc1Nc1nccc(-c2cccnc2)n1 .
Result: -1

Request: Please report Growth Rate with Fibroblast for item N#Cc1ccc(C#CC[C@@H](C#N)NC(=O)[C@@H]2CCCCN2)cc1F .
Result: -1

Request: Please report Growth Rate with Fibroblast for item CCCN1C(=O)c2ccc(Cl)cc2Nc2ncccc21 .
Result: -1

Request: Please report Growth Rate with Fibroblast for item Cc1cc(-c2cc3ncccc3c(OC[C@H]3CCCNC3)n2)ccc1N(C)C.O=C(O)C(F)(F)F .
Result: -0.49

---

test system: HEK-293T; assay: Incucyte cell viability with HEK293T; type: toxicity, cell-based; conditions: human, 0 h, 10 µM, compound concentration 10 uM, replicate number 2; further: unitless GR value; below 1 slowed growth and below 0 cell loss
MEASURED_METRIC: Growth Rate
The reply should be a number, written without any unit.

Request: Retrieve Growth Rate measured for CN1Cc2nccc(-c3cn(C)nc3-c3ccc(F)cc3)c2C1=O.Cl and print it.
Result: 0.69

Request: Retrieve Growth Rate measured for Br.CO[C@H]1CC=C2CCN3CCC4=C(CC(=O)OC4)[C@]23C1 and print it.
Result: 0.77

Request: Retrieve Growth Rate measured for CN(C)c1cc2c(Nc3ccc4c(cnn4Cc4ccccc4)c3)ncnc2cn1 [GW282974X] and print it.
Result: -0.53

Request: Retrieve Growth Rate measured for CCC(=O)O[C@@H](OP(=O)(CCCCc1ccccc1)CC(=O)N1C[C@H](C2CCCCC2)C[C@H]1C(=O)[O-])C(C)C.[Na+] (stereo not given in full) and print it.
Result: -1

Request: Retrieve Growth Rate measured for COc1ccc(CC[C@@H](OC(=O)[C@@H]2CCCCN2C(=O)[C@H](c2cc(OC)c(OC)c(OC)c2)C2CCCCC2)c2cccc(OCCN3CCOCC3)c2)cc1OC and print it.
Result: -0.44

Request: Retrieve Growth Rate measured for O=C(O)C[C@H]1CC[C@H](c2ccc(NC(=O)c3nnc(Nc4ccc(F)c(F)c4)o3)cc2)CC1 and print it.
Result: -0.23

Request: Retrieve Growth Rate measured for CC[C@](C)(O)C#Cc1cc2c(ccn2-c2cc(OC)nc(N)n2)cn1 and print it.
Result: 0.37

Request: Retrieve Growth Rate measured for COc1cnccc1Nc1nc(-c2nn(Cc3c(F)cc(OCCO)cc3F)c3ccccc23)ncc1OC and print it.
Result: -0.96

Request: Retrieve Growth Rate measured for CCOc1ccc(S(=O)(=O)Nc2ccc(Cl)cc2C#Cc2cnc(C(=O)[O-])cc2OC)c2ncccc12.[K+] and print it.
Result: -0.2

Request: Retrieve Growth Rate measured for CCN(c1ccccc1)c1cc(NC)[n+](C)c(C)n1.[Cl-] and print it.
Result: 0.56

Request: Retrieve Growth Rate measured for CC1(C)CCC(CN2CCN(c3ccc(C(=O)NS(=O)(=O)c4ccc(NCC5CCOCC5)c([N+](=O)[O-])c4)c(Oc4cnc5[nH]ccc5c4)c3)CC2)=C(c2ccc(Cl)cc2)C1 and print it.
Result: 0.6

Request: Retrieve Growth Rate measured for O=C(Nc1ccc(N2CCC(C(=O)N3CCOCC3)CC2)cc1)c1cnc(Oc2ccccc2)nc1 and print it.
Result: -0.09

Request: Retrieve Growth Rate measured for COc1cc([N+](=O)[O-])ccc1NC(=O)c1ccccc1O and print it.
Result: 0.91

Request: Retrieve Growth Rate measured for O=C(O)CCCc1cc2cc(Cl)ccc2n1S(=O)(=O)c1ccc2ncsc2c1 and print it.
Result: -0.8

Request: Retrieve Growth Rate measured for CC[C@H](Nc1c(C#N)c(-c2ccc(-c3cccc(C)c3F)cc2)nc2cnccc12)C(=O)O and print it.
Result: 0.79

Request: Retrieve Growth Rate measured for COc1ccc(-c2c(-c3ccccc3)oc3ncnc(O[C@H](C)CCCCC(=O)O)c23)cc1 and print it.
Result: 0.14

Request: Retrieve Growth Rate measured for O=C1Nc2ccc(C(=O)c3ccco3)cc2C1=Cc1cc(Cl)c(O)c(Cl)c1 [GW406108X] and print it.
Result: 0.57

Request: Retrieve Growth Rate measured for COc1ccc(NC(=O)[C@@H]2C[C@H](C)CC[C@H]2C(C)C)cc1 and print it.
Result: 0.02

Request: Retrieve Growth Rate measured for Cc1[nH]nc2ccc(-c3cncc(OCC(N)Cc4ccccc4)c3)cc12 (stereo not given) and print it.
Result: -0.85

Request: Retrieve Growth Rate measured for NCc1ccc(OCCCc2sc(-c3ccc4c(c3)/C(=N/Nc3nc5ccccc5s3)CCC4)nc2C(=O)O)cc1 and print it.
Result: -0.79

Request: Retrieve Growth Rate measured for O=C(CNC(=O)c1ccc(-c2ccccc2)cc1)NC1CCCc2ccccc21 (stereo not given) and print it.
Result: -0.65

Request: Retrieve Growth Rate measured for CCOC(=O)c1cc2cc(-c3cc(C(=O)NCc4ccc(C(=O)O)cc4)nn3C)ccc2[nH]1 and print it.
Result: 0.34

Request: Retrieve Growth Rate measured for CN1CCC(C#N)(NC(=O)[C@@H](NC(=O)N2CCOCC2)C(C)(C)C)CC1 and print it.
Result: 0.91

Request: Retrieve Growth Rate measured for O=C(NS(=O)(=O)N1CCC1)c1cc(C2CC2)c(OCC23CC4CC(CC(C4)C2)C3)cc1F and print it.
Result: 0.39

Request: Retrieve Growth Rate measured for Cc1cc(C(C#N)c2ccc(Cl)cc2)c(Cl)cc1NC(=O)c1cc(I)cc(I)c1O (stereo not given) and print it.
Result: 0.76

Request: Retrieve Growth Rate measured for Cl.NC(=O)c1ccccc1Nc1nc(-c2ccc(N3CCOCC3)cc2)cc2ncccc12 and print it.
Result: -1

Request: Retrieve Growth Rate measured for O=C(O)CCCCN(CCc1ccccc1OCc1ccc(CCc2ccccc2)cc1)Cc1ccc(C(=O)O)cc1 and print it.
Result: 0.47

Request: Retrieve Growth Rate measured for Cn1cc(NC(=O)c2ccc3nc4n(c3c2)CCCNC4=O)nc1C(=O)NC1CCCC1 and print it.
Result: 0.71

Request: Retrieve Growth Rate measured for Cc1cc(CN(CC(=O)Nc2ccc(Cl)cc2Cl)C2CCCCC2)ccc1OCC(=O)O and print it.
Result: 0.19

Request: Retrieve Growth Rate measured for COCCc1ccc(-c2c(C)nc3c(N4CCOCC4)ccnn23)cn1 and print it.
Result: 0.44

Request: Retrieve Growth Rate measured for CCn1c(-c2ccncc2)cc2c1CCNC2=O and print it.
Result: -0.66

Request: Retrieve Growth Rate measured for CCN(C(=O)CO)[C@H]1CN(/C(=N\C#N)Nc2cccc(OC(F)F)c2)N=C1c1ccc(Cl)c(Cl)c1 and print it.
Result: -0.6

Request: Retrieve Growth Rate measured for CC(C1CC2CCC1C2)n1c(S)nnc1-c1ccco1 (stereo not given) and print it.
Result: 0.53

Request: Retrieve Growth Rate measured for Cc1nccc(COC(=O)N2C[C@@H]3[C@@H](CNC(=O)c4ccc5[nH]nnc5c4)[C@@H]3C2)n1 and print it.
Result: 0.4

Request: Retrieve Growth Rate measured for COC[C@H](O)Cn1c(=O)cnn(-c2ccc(Cl)c(C(=O)NCC3(O)CCCCCC3)c2)c1=O and print it.
Result: 0.38
